# Test system: ACHN renal
# method_description: NCI-60 one-dose screen, 48 h (100 = growth as untreated, 0 = no growth, -100 = all killed)
# test_parameters: 10 µM unless noted
Compounds without any hit were thinned out: in the full panel of roughly 83,000, 20% have a hit. Calls of active or inactive are those of the source. The calls were made as follows: active = growth percent below 10; inactive = the rest.
Listed compounds paired with reported growth

Below are worked cases with known answers.
- test_smiles: "CC(=O)OC[C@]12CC[C@@H]([C@@H](C)C(N)=O)[C@@H]1[C@H]1CC[C@@H]3[C@@]4(C)CC[C@H](OC(C)=O)C(C)(C)[C@@H]4CC[C@@]3(C)[C@]1(C)CC2"
  system_under_test: "ACHN renal"
  growth: "-75.7% [100 µM] (active)"
- test_smiles: "C[n+]1c2ccccc2nc2c(N)cc(N)cc21"
  system_under_test: "ACHN renal"
  growth: "96.7% (inactive)"
- test_smiles: "O=[N+]([O-])c1cc(CCl)ccc1OCCBr"
  system_under_test: "ACHN renal"
  growth: "107% (inactive)"

q: Given the entry `O=C(O)c1cccc(CN2CCN(c3cc4c(cc3F)c(=O)c(C(=O)O)cn4C3CC3)CC2)c1O` , report its measured growth.
a: 103% (inactive)

q: And `Nc1cc(Cl)cc2cccnc12` ?
a: 102% (inactive)

q: And `COc1ccc(-c2cc(-c3ccc(OC)c(OC)c3)nc(SCCCCCC(=O)NO)n2)cc1` ?
a: 81.3% (inactive)

q: And `C#CCNC(=O)CC[C@@H](C)[C@H]1CC[C@H]2[C@@H]3CC[C@@H]4CC(=O)CC[C@]4(C)[C@H]3CC[C@]12C` ?
a: -86.2% [100 µM] (active)

q: And `C[C@H]1[C@H](C)CC[C@]2(C(=O)O)CC[C@]3(C)C(=CC[C@@H]4[C@@]5(C)C/C(=C/c6ccco6)C(=O)C(C)(C)[C@@H]5CC[C@]43C)[C@H]12` ?
a: -97.9% [100 µM] (active)
